System: DNBS-Induced Inflammatory Bowel Disease Models in Rats
Experiment: Biological Example 4: DNBS-induced inflammatory bowel disease models in rats
Type: in vivo, Wistar rats
Conditions: Rattus norvegicus, po, 168 h; 30 mg/Kg i.g. qd × 7; day 7; read-out: Inhibitory rate of ulcer area of colon
Would you kindly list inhibition in vivo at 30 mg/kg for each of these molecules?
State just the number; it will be interpreted in %.

Provide only the value of recorded inhibition in vivo at 30 mg/kg for COCCN1C(=O)CCC(N2C(=O)c3cccc(O)c3C2=O)C1=O (stereo not drawn) 91.7

Provide only the value of recorded inhibition in vivo at 30 mg/kg for COCCN1C(=O)CCC(N2C(=O)c3cccc(C)c3C2=O)C1=O (stereo not drawn) 87.5

Provide only the value of recorded inhibition in vivo at 30 mg/kg for CNc1cccc2c1C(=O)N(C1CCC(=O)N(CCOC)C1=O)C2=O (stereo not drawn) 83.3

Provide only the value of recorded inhibition in vivo at 30 mg/kg for COCCN1C(=O)CCC(N2C(=O)c3cccc(N)c3C2=O)C1=O (stereo not drawn) 83.3

Provide only the value of recorded inhibition in vivo at 30 mg/kg for COCCN1C(=O)CCC(N2C(=O)c3c(N)ccc(O)c3C2=O)C1=O (stereo not drawn) 91.7

Provide only the value of recorded inhibition in vivo at 30 mg/kg for COCCN1C(=O)CCC(F)(N2C(=O)c3cccc(N)c3C2=O)C1=O (stereo not drawn) 95.8

Provide only the value of recorded inhibition in vivo at 30 mg/kg for COCCN1C(=O)CCC(N2C(=O)c3ccc(O)c(N)c3C2=O)C1=O (stereo not drawn) 91.7

Provide only the value of recorded inhibition in vivo at 30 mg/kg for COCCN1C(=O)CCC(N2C(=O)c3c(F)c(F)c(F)c(F)c3C2=O)C1=O (stereo not drawn) 91.7

Provide only the value of recorded inhibition in vivo at 30 mg/kg for C[S+]([O-])CCN1C(=O)CCC(N2C(=O)c3cccc(N)c3C2=O)C1=O (stereo not drawn) 83.3
